Target: T1, human CD3 expressed on T cells (Jurkat cells, human pan T cells/PBMC) (human, UniProt P07766 23-207)
T1 construct: whole, on cells; On T cells CD3 epsilon stands in the CD3 complex with the gamma, delta and zeta chains and the T-cell receptor; only the epsilon chain is written out; also called CD3+ Jurkat cells; human T cells
T1 sequence (P07766 23-207): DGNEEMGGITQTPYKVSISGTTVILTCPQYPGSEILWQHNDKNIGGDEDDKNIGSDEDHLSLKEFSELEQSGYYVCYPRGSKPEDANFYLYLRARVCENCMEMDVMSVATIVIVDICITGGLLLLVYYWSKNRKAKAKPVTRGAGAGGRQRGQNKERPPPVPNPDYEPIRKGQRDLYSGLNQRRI
Test: cell ELISA on CD3+ Jurkat cells
TEST READOUT: EC50 (nM)
Answers are plain numbers, in nM.

// below: answered binders
BINDER	EC50 (nM)
variant 21829, monovalent anti-CD3 scFv-heterodimeric Fc (VL hC3E-1_1L1d, VH hC3E-1(N53R)) (Fc fusion, scFv order VH-(GGGGS)3-VL on Fc chain A; chain B is Fc only; also called v21829; not shown: Fc-only chain B is also left out) scFv: EVQLVESGGGLVQPGGSLRLSCAASGVTFNYYGMSWIRQAPGKGLEWVASITRSGGRIYYPDSVKGRFTISRENTQKTLYLQMNSLRAEDTAVYYCTLDGRDGWVAYWGQGTLVTVSSGGGGSGGGGSGGGGSQVVLTQPPSASGTPGQRVTISCKRNTGNIGSNYVNWYQQLPGTAPKLLIYRDDKRPDGVPDRFSGSKSGTSASLAISGLQSEDEADYYCQSYSSGFIFGGGTKLTVL	0.65
variant 21831, monovalent anti-CD3 scFv-heterodimeric Fc (VL hC3E-1_1L1d, VH hC3E-1(N53S)) (Fc fusion, scFv order VH-(GGGGS)3-VL on Fc chain A; chain B is Fc only; also called v21831; not shown: Fc-only chain B is also left out) scFv: EVQLVESGGGLVQPGGSLRLSCAASGVTFNYYGMSWIRQAPGKGLEWVASITSSGGRIYYPDSVKGRFTISRENTQKTLYLQMNSLRAEDTAVYYCTLDGRDGWVAYWGQGTLVTVSSGGGGSGGGGSGGGGSQVVLTQPPSASGTPGQRVTISCKRNTGNIGSNYVNWYQQLPGTAPKLLIYRDDKRPDGVPDRFSGSKSGTSASLAISGLQSEDEADYYCQSYSSGFIFGGGTKLTVL	3.96

Now take the following binder into account.
Task: Return reported EC50; argument: variant 18346, monovalent anti-CD3 scFv-heterodimeric Fc (VL hC3E-1 wildtype, VH hC3E-1 wildtype) (Fc fusion, scFv order VH-(GGGGS)3-VL on Fc chain A; chain B is Fc only; also called v18346; parental construct v18346; not shown: Fc-only chain B is also left out) scFv: EVQLVESGGGLVQPGGSLRLSCAASGVTFNYYGMSWIRQAPGKGLEWVASITNSGGRIYYPDSVKGRFTISRENTQKTLYLQMNSLRAEDTAVYYCTLDGRDGWVAYWGQGTLVTVSSGGGGSGGGGSGGGGSNFMLTQPHSVSESPGKTVTISCKRNTGNIGSNYVNWYQQHEGSSPTTIIYRDDKRPDGVSDRFSGSIDRSSKSASLTISNLKTEDEADYFCQSYSSGFIFGGGTKLTVL
Output: 0.34

Ref: patent US20210277118A1
